- Test system: IL-2
- PROTOCOL: PHA-IL2 (cell activation and cytokine analysis)
- Format: cell-based
- CONDITION DETAILS: 50% inhibition concentration class
# IC50 annotations

Record excerpt, results attached:
O=C(COc1ccccc1-c1ccc(C(F)(F)F)cc1F)N1CCC(CCc2ccc3c(c2)OCO3)CC1	< 1000 nM
O=C(COc1ccccc1-c1ccc(F)cc1)N1CCC(CCc2ccccc2)CC1	1000 to 10000 nM
CC(C)Oc1cccc(CCC2CCN(C(=O)COc3ccccc3-c3ccc(C#N)cc3O)CC2)c1	< 1000 nM
O=C(O)c1ccc(-c2ccccc2OCC(=O)N2CCC(CCc3ccc4c(c3)OCO4)CC2)cc1	10000 to 50000 nM
O=C(COc1ccccc1-c1ccc(F)cc1O)N1CCC(CCc2ccc3c(c2)OCO3)CC1	< 1000 nM
COc1ncccc1-c1ccccc1OCC(=O)N1CCC(CCc2ccc3c(c2)OCO3)CC1	1000 to 10000 nM
N#Cc1ccc(-c2cccnc2OCC(=O)N2CCC(CCc3ccc4c(c3)OCO4)CC2)cc1	1000 to 10000 nM

(Q) Need IC50 of CC(C)Oc1cccc(CCC2CCN(C(=O)COc3ccccc3-c3ccc(F)cc3O)CC2)c1 , thanks.
(A) < 1000 nM
